The reported measurements were obtained from PubChem BioAssay (NCI).

Below, each of the molecules is paired with its reported TGI value.
# Tested on: MDA-N
# test details: NCI tumour cell line growth inhibition, 48 h
Note: unit µM is implicit; provide only the numeric part.

{"columns": ["molecule", "TGI (µM)"],
 "data": [
  ["CCCCCCCc1c(Cl)nc(Cl)nc1Cl", 13.1]
]}

Record summary for CN(C)c1ccc(/C=c2/c3ccccc3n3c2cc(-c2ccc(Cl)cc2)[n+]3C)cc1 : reported TGI = 1.23

Record summary for CCOc1ccc(N=NC2C(=O)N(C(=O)CC(=O)Nc3ccc(C)cc3)N=C2C)cc1 (stereo not given) : reported TGI = 13.9

Record summary for COc1ccc2nc3c([N+](=O)[O-])ccc4c3c(c2c1)N(CCCN(C)C)C(=S)N4CCCN(C)C : reported TGI = 21.3

Record summary for CC1=C(C)C(=O)C2=C(OCCO2)C1=O : reported TGI = 26.7

Record summary for COCCCN(Cc1cc(OC)c(OC)c(OC)c1)C(=S)Nc1cccc(Cl)c1 : reported TGI = 45.7

---

# Tested on: UO-31 renal
# test details: NCI tumour cell line growth inhibition, 48 h
metric: TGI

Solved entries (count: 4):
{"columns": ["molecule", "TGI"],
 "data": [
  ["CCc1c2c(nc3ccc(OC(=O)NCc4ccc(B5OC(C)(C)C(C)(C)O5)cc4)cc13)-c1cc3c(c(=O)n1C2)COC(=O)[C@]3(O)CC", "0.294 µM"],
  ["CC1=NN(c2nc(N)nc(COCc3nc(N)nc(N4N=C(C)CC4(C)C)n3)n2)C(C)(C)C1", "> 100 µM"],
  ["C[C@H](O)CNc1cc(-c2[nH]c3cccnc3c2-c2ccc(F)cc2)ccn1", "> 25 µM"],
  ["CCN(CC)CCNC(=O)c1cn2ncnc(Oc3ccc(NC(=O)Nc4ccc(Cl)c(C(F)(F)F)c4)cc3)c2c1C", "3.15 µM"]
]}

Record summary for NC(=O)c1c2c(n3ccccc13)C(=O)c1ccccc1C2=O : reported TGI = > 100 µM

Record summary for CCOC(=O)C1N(S(=O)(=O)c2ccc(C)cc2)CCC12c1ccccc1NC2c1ccc(OC)c(OC)c1 (centres undefined) : reported TGI = > 100 µM

Record summary for O=C1C(=O)c2c(O)ccc(O)c2C(O)=C1Cl : reported TGI = > 100 µM

Record summary for COc1ccc2c(c1)OCC1c3cc(O)ccc3OC21 (centres undefined) : reported TGI = > 100 µM

Record summary for Clc1ccc(Nc2nn3c(CCCCCCCCc4nnc5sc(Nc6ccc(Cl)cc6)nn45)nnc3s2)cc1 : reported TGI = > 100 µM

---

# Test system: MDA-N
# test details: NCI tumour cell line growth inhibition, 48 h
Below, each of the compounds is paired with its reported TGI value.

Solved entries (count: 3):
{"columns": ["compound", "tested on", "measured"],
 "data": [
  ["O=C1CC[C@@]2(O)[C@H]3Cc4ccc(-c5cccc(O)c5)c5c4[C@@]2(CCN3CC2CC2)[C@H]1O5", "MDA-N", "30.9 µM"],
  ["O=P(O)(O)OC1OC(CO)C(O)C(O)C1O (configuration not stated)", "MDA-N", "> 100 µM"],
  ["O=C(CCN1CCCCC1)Nc1ccc2sc3ccccc3c(=O)c2n1", "MDA-N", "28.9 µM"]
]}

Record summary for N#Cc1cc(-c2nc3ccc(F)cc3s2)ccc1N : reported TGI = > 100 µM

Record summary for CCC(=O)O[C@H]1CC[C@H]2[C@@H]3CCC4=CC(=O)C=C[C@]4(O)[C@H]3CC[C@]12C : reported TGI = > 100 µM

Record summary for CC(NNC(=S)N1CCCCCC1)c1cccnn1 (configuration not stated) : reported TGI = > 100 µM

Record summary for Cc1cnc(Cl)nc1C(C#N)c1nc2ccccc2s1 (configuration not stated) : reported TGI = 68.1 µM

Record summary for O=C(Nc1ccccc1Cl)c1cc(S(=O)(=O)Nc2n[nH]c(=O)n2-c2ccccc2)c(S)cc1Cl : reported TGI = > 100 µM

Record summary for Cc1cc2c(c(C)c1O)C(C)(C)CN2C(=O)C(C)(C)C : reported TGI = > 100 µM

Record summary for Cc1ccc2nc(-n3c(/C=C/c4ccccc4O)nc4ccccc4c3=O)sc2c1 : reported TGI = > 100 µM

Record summary for O=C1Cc2c([nH]c3ccc([N+](=O)[O-])cc23)-c2ccccc2N1 : reported TGI = 8.44 µM
